biological target: Retinoic acid receptor alpha (Homo sapiens) (UniProt P10276); assay: ATG_RARa_TRANS: Attagene TRANS-FACTORIAL HepG2 Assay for human Retinoic Acid Receptor alpha (RARa) (AID 2283005)
Sequence (P10276 whole entry, looked up): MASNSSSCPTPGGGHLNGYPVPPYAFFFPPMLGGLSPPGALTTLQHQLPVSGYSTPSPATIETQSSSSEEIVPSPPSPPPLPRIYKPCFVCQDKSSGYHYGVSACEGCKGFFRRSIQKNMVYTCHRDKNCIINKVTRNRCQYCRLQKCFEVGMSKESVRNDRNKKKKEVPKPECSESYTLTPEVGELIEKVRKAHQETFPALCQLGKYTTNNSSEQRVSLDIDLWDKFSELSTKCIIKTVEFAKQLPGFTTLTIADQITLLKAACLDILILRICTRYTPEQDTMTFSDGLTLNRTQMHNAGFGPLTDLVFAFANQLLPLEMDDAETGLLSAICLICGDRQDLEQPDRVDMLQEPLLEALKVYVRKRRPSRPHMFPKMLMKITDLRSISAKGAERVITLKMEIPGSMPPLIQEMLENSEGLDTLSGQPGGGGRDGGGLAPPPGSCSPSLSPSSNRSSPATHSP
Results filed as inconclusive are left out. The source made the active and inactive calls. The calls were made as follows: active = hit-call score of the fitted dose curve at least 0.9, where 1 is the maximum; inconclusive = response in the unintended direction; inactive = score below 0.9.
Readout: outcome

> print(dat)
                         smiles.input  readout  test.value
1             Cc1cc(Cl)ccc1OCCCC(=O)O  outcome    inactive
2  CC(C)CC(C)(c1ccc(O)cc1)c1ccc(O)cc1  outcome    inactive
3                         N#Cc1ccncc1  outcome    inactive
